Catalogue of molecules with associated TGI
test system: MDA-MB-435; test: NCI tumour cell line growth inhibition, 48 h
Readout Kind: TGI (µM)

molecule=Cc1ccc(CS/C(=C\c2ccc([N+](=O)[O-])cc2)C(=O)c2ccc(F)cc2)cc1 subject_of_test=MDA-MB-435 lt_gt_eq== value_measured=6.49
molecule="CN(C)CCCOc1nc2c(c(=O)n(C)c(=O)n2C)n1C (tested in a mixture with another compound)" subject_of_test=MDA-MB-435 lt_gt_eq=> value_measured=100
molecule="O=c1nc(N2CCN(c3ccccc3)CC2)ccn1C1OC(CO)C(O)C1O (stereo not given)" subject_of_test=MDA-MB-435 lt_gt_eq=> value_measured=100
molecule=O=C1/C(=C/c2ccccc2)N=C(c2ccccc2)N1n1c(-c2ccccc2)nc2ccccc2c1=O subject_of_test=MDA-MB-435 lt_gt_eq=> value_measured=100
molecule="COCOC1/C=C/CCCCC2=C(C)C=C(C1)O2 (stereo not given)" subject_of_test=MDA-MB-435 lt_gt_eq=> value_measured=100
molecule=Cc1ccc(S(=O)(=O)N(CCOc2ccc(/C(N)=N/Cl)cc2)CCOc2ccc(/C(N)=N\Cl)cc2)cc1 subject_of_test=MDA-MB-435 lt_gt_eq=> value_measured=100
molecule=N#C/C(=C1C=C/C(=N/O)C(Br)=C/1)c1ccccc1 subject_of_test=MDA-MB-435 lt_gt_eq== value_measured=2.32
molecule=O=C(CN1c2ccccc2Sc2ccccc21)N1CCNCC1 subject_of_test=MDA-MB-435 lt_gt_eq=> value_measured=100
molecule=CNC(=O)OCc1c(COC(=O)NC)c(-c2ccc(Cl)c(Cl)c2)n2c1SCC2 subject_of_test=MDA-MB-435 lt_gt_eq== value_measured=33.3
molecule=O=c1oc2ccc(F)cc2c(=O)n1-c1ccc(F)cc1F subject_of_test=MDA-MB-435 lt_gt_eq== value_measured=14.6

---

tested on: MCF7 breast; test: NCI tumour cell line growth inhibition, 48 h
Readout Kind: TGI

compound=CN1CCN(Cc2ccc(NC(=O)c3cncc(C#Cc4cnc(N)c5ccc(C#N)cc45)c3)cc2C(F)(F)F)CC1 subject_of_test="MCF7 breast" value_measured="1.86 µM"
compound=CCOc1cccc(/C=N/NC(=O)c2ccccc2Nc2ccnc(C(F)(F)F)c2)c1O subject_of_test="MCF7 breast" value_measured="25.4 µM"
compound=Cc1c(C(=O)N/N=C/c2ccc(Cl)cc2)nnn1-c1ccnc2c(C(F)(F)F)cccc12 subject_of_test="MCF7 breast" value_measured="5.61 µM"
compound="COc1ccc(C2CC(c3c(O)ccc4ccccc34)=NN2c2ccc([N+](=O)[O-])cc2[N+](=O)[O-])cc1OC (stereo not given)" subject_of_test="MCF7 breast" value_measured="> 91.7 µM"
compound=O=C(c1ccco1)c1nc2ccc(C(F)(F)F)cc2[n+]([O-])c1C(F)(F)F subject_of_test="MCF7 breast" value_measured="> 100 µM"
compound=COc1cnc2cc(C(=O)O)c3c([N+](=O)[O-])cccc3c2c1 subject_of_test="MCF7 breast" value_measured="> 100 µM"
compound="O=C(O)CCCCC(CCSCc1ccccc1)SCc1ccccc1 (stereo not given)" subject_of_test="MCF7 breast" value_measured="> 100 µM"
compound="CC1OC(n2cc(F)c(=O)[nH]c2=O)CCC1O (stereo not given)" subject_of_test="MCF7 breast" value_measured="> 72.3 µM"
compound=Cc1ccc(-c2c(C#N)c(-c3ccccc3)n(NS(=O)(=O)c3ccccc3)c(=O)c2C#N)cc1 subject_of_test="MCF7 breast" value_measured="> 100 µM"
compound=CCOP(=O)(OCC)/C(C#N)=C/c1cnc(-c2ccccc2)[nH]1 subject_of_test="MCF7 breast" value_measured="> 100 µM"

---

tested on: HCT-116 colon; test: NCI tumour cell line growth inhibition, 48 h
TGI values by entry
Readout Kind: TGI (µM)

molecule="CC1OC(O[C@H]2C[C@@H](O)[C@]3(CO)[C@H]4[C@H](O)C[C@]5(C)[C@@H](C6=CC(=O)OC6)CC[C@]5(O)[C@@H]4CC[C@]3(O)C2)C(O)C(O)C1O (stereo not given in full)" lt_gt_eq== value_measured=33.7
molecule="CN1C(=O)N(c2ccccc2)C2(CCN(CC3COc4ccccc4O3)CC2)C1=O (stereo not given)" lt_gt_eq=> value_measured=100
molecule=COc1cccc(/C=N/NC(=O)c2ccccc2Nc2ccnc(C(F)(F)F)c2)c1O lt_gt_eq=> value_measured=67.2
molecule=Cc1cc(N(CCOS(C)(=O)=O)CCOS(C)(=O)=O)ccc1C=Nc1ccc(-c2nc(Cc3ccccc3)sc2C)cc1 lt_gt_eq== value_measured=35
molecule="CN(C)CCCOC(=O)C(c1ccccc1)C1(O)CCSCC1 (stereo not given)" lt_gt_eq=> value_measured=100

---

The entries below come with measured TGI values attached.
tested on: MOLT-4 leukemia; assay: NCI tumour cell line growth inhibition, 48 h
Readout Kind: TGI

molecule=Cc1cc(N(CCC#N)CCC#N)ccc1/C=N/NC(=O)c1cc(Cl)ccc1O subject_of_test="MOLT-4 leukemia" value_measured="> 100 µM"
molecule=CCCc1cc(=O)c2c(C)c3[nH]c4ccc(Cl)cc4c3c(C)c2[nH]1 subject_of_test="MOLT-4 leukemia" value_measured="> 100 µM"
molecule=O=C(Nc1ccc(N2CCNCC2)cc1)c1[nH]ncc1Nc1cc(Oc2ccccc2)ncn1 subject_of_test="MOLT-4 leukemia" value_measured="5.28 µM"
molecule=C[C@]12CC[C@@H]3c4ccc(O)cc4CC[C@H]3[C@@H]1C/C(=C\c1ccncc1)C2=O subject_of_test="MOLT-4 leukemia" value_measured="> 100 µM"
molecule="CCOC(=O)CNC(=O)C(CSCc1ccc(Br)cc1)NC(=O)CCC(N)C(=O)OCC (stereo not given)" subject_of_test="MOLT-4 leukemia" value_measured="> 50 µM"

---

tested on: SF-295 CNS; experiment: NCI tumour cell line growth inhibition, 48 h
Readout Kind: TGI

molecule="COC(=O)C(=O)C(C(=O)C=C(C)C)C(=O)C(=O)Nc1cc(C(F)(F)F)ccc1Cl (stereo not given)" readout_kind=TGI value_measured="> 100 µM"
molecule=COc1ccccc1Nc1nc(N)nc(N)c1N=O readout_kind=TGI value_measured="> 100 µM"
molecule="CN(C)CCCOc1nc2c(c(=O)n(C)c(=O)n2C)n1C (tested in a mixture with another compound)" readout_kind=TGI value_measured="> 100 µM"
molecule=Cn1cc(-c2cnc3ccc(NC(=O)Nc4ccc(F)c(Br)c4)cc3n2)cn1 readout_kind=TGI value_measured="3.73 µM"
molecule=COC(=O)c1cc2c3ccccc3[nH]c2c2ncccc12 readout_kind=TGI value_measured="> 100 µM"
molecule="Cc1ccc(S(=O)(=O)C(CC(=O)N2CCCC2)C(=O)c2ccccc2)cc1 (stereo not given)" readout_kind=TGI value_measured="> 100 µM"
molecule=CCOP(=O)(OCC)/C(C#N)=C/c1cnc(-c2ccccc2)[nH]1 readout_kind=TGI value_measured="> 100 µM"
molecule="COc1ccc(N2C(=O)C3c4[nH]c5ccc(OCc6ccccc6)cc5c4C4CCC(C(C)(C)C)CC4C3C2=O)cc1 (stereo not given)" readout_kind=TGI value_measured="> 100 µM"
molecule=CC(C)OP(=O)(OC(C)C)c1c(Nc2ccccc2)n[nH]c1N readout_kind=TGI value_measured="> 100 µM"
molecule="CC1=C(C(=O)Nc2ccc3[nH]ncc3c2)C(c2ccc3ccccc3c2)CC(=O)N1 (stereo not given)" readout_kind=TGI value_measured="> 25 µM"

---

test system: 786-0 renal; test: NCI tumour cell line growth inhibition, 48 h
Readout Kind: TGI (µM)

compound=CC(C)=CCOC(=O)C(C)=[N+]=[N-] lt_gt_eq=> value_measured=100
compound=Cc1cc(I)cc(CNCCCN2CCSCC2)c1O lt_gt_eq== value_measured=25.8
compound="COc1ccc(C2Oc3c(cc(O)c(OC)c3C)[C@@H]2C)cc1OC (stereo not given in full)" lt_gt_eq=> value_measured=100
compound=NCC(=O)NS(=O)(=O)OC[C@H]1O[C@@H](n2cnc3c(N)ncnc32)[C@H](O)[C@@H]1O lt_gt_eq== value_measured=3.47
compound="CN1C(=O)C2C(=O)N(Cc3ccccc3)CC(=O)N2c2cccnc21 (stereo not given)" lt_gt_eq=> value_measured=100

---

system: UACC-62 melanoma; experiment: NCI tumour cell line growth inhibition, 48 h
Readout Kind: GI50

compound=COc1ccc2[nH]c(O)c(/C=c3/cc4c(c(-c5cc(OC)c(OC)c(OC)c5)n3)=Nc3ccccc3-4)c2c1 subject_of_test="UACC-62 melanoma" value_measured="13.6 µM"
compound="N#CSCC1CC(O)(c2ccccc2)C(c2ccccc2)C(c2ccc(Cl)cc2)O1 (stereo not given)" subject_of_test="UACC-62 melanoma" value_measured="1.41 µM"
compound="CSc1ccc(C2=NN(C(C)=O)C(c3cc(C)cs3)C2)cc1 (stereo not given)" subject_of_test="UACC-62 melanoma" value_measured="11.2 µM"
compound=O=c1oc2ccc(F)cc2c(=O)n1-c1ccc(F)cc1F subject_of_test="UACC-62 melanoma" value_measured="2.02 µM"
compound=O=C(c1ccco1)c1nc2ccc(C(F)(F)F)cc2[n+]([O-])c1C(F)(F)F subject_of_test="UACC-62 melanoma" value_measured="43.1 µM"
